Molecular target: T1, biotinylated CRH (human and mouse, not fully specified; biotinylated, position not stated)
T1 construct: also called Biotin-CRH; biotin-labeled CRH
T1 peptide: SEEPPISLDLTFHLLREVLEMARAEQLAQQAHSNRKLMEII
Assay: Octet BLI, biotinylated CRH on SA sensor

binder	unitsSymbol	kon
PR006147 (antibody, human IgG1, kappa, V domains shown, PTM-removal variant of PR004290) VH: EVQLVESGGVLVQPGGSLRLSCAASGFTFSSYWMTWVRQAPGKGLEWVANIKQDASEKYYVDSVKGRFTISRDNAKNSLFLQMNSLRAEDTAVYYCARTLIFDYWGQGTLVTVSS VL: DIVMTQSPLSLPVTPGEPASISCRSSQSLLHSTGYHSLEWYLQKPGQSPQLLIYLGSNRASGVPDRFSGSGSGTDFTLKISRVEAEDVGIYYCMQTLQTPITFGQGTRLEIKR	M⁻¹ s⁻¹	489000
PR302334 (antibody, human IgG1, kappa, V domains shown, Series 9; mouse variable domains with human IgG1 wildtype Fc) VH: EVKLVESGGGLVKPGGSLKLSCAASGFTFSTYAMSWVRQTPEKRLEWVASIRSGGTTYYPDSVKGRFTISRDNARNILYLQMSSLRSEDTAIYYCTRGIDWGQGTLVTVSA VL: NIVMTQTPKFLLVSAGDRITITCKASQSVNNDVAWYQQKPGQSPKLLIYYASNRYTGVPDRFTGSGYGTDFTFTISTVQAEDLAVYFCQQDYSSWTFGGGTNLEIKR	M⁻¹ s⁻¹	669000
